# protocol-notes: Intrinsic clearance in mouse liver microsomes assessed per mg protein measured up to 60 mins in presence of NADPH
# Assay type: ADME, Microsome
# experimental-setup: 1 h

>  <smiles-data>
CN1CCN(c2ccc(S(=O)(=O)NCc3ccc(-c4nc(-c5cccnc5)no4)cc3)cc2)CC1

>  <readout-unit>
µL/min/mg

>  <CLint>
677

$$$$
>  <smiles-data>
O=C(Nc1cccnc1)c1ccc(CNS(=O)(=O)c2ccc(N3CCOCC3)cc2)cc1

>  <readout-unit>
µL/min/mg

>  <CLint>
200

$$$$
>  <smiles-data>
CN1CCN(c2ccc(S(=O)(=O)NCc3ccc(C(=O)Nc4cccnc4)cc3)cc2)CC1

>  <readout-unit>
µL/min/mg

>  <CLint>
112

$$$$

Hey, just so you know, these numbers are from ChEMBL document CHEMBL4342427.
